Target: UniProtKB P31749
Test: PKB kinase assay (P33-labeled ATP, synthetic peptide substrate, filter plate)
Conditions: PKBα enzyme (full length or kinase domain with pleckstrin domain deleted)
Listed compounds paired with reported IC50

Some solved cases for reference:
Cc1n[nH]c2ccc(-c3cn(CC[C@@H](N)Cc4ccccc4)nn3)cc12 [Example 40]: 1000 to 10000 nM
N[C@H](CCn1cc(-c2ccc3cnc(F)cc3c2)cn1)Cc1ccc(Cl)cc1 [Example 55]: < 50 nM
N[C@H](CCn1cc(-c2ccc3cnccc3c2)cn1)Cc1ccc(F)c(F)c1 [Example 61]: 50 to 1000 nM
N[C@H](CCn1cc(-c2ccc3[nH]ncc3c2)cn1)Cc1ccc(Cl)cc1 [Example 52]: < 50 nM
N[C@H](CNc1cc(-c2ccc3cnccc3c2)no1)Cc1ccccc1 [Example 15]: 50 to 1000 nM
N[C@H](CCc1cc(-c2ccc3cnccc3c2)no1)Cc1cccc(C(F)(F)F)c1 [Example 29]: 50 to 1000 nM

[in] Look up IC50 for this compound: N[C@H](CNc1nc(-c2ccc3c(c2)CC(=O)N3)ns1)Cc1ccc(C(F)(F)F)cc1 [Example 44]
[out] 1000 to 10000 nM

[in] Likewise for Cn1c(=O)[nH]c2ccc(-c3cnn(CC[C@@H](N)Cc4ccc(Cl)cc4)c3)cc21 [Example 54] ?
[out] 50 to 1000 nM

---

Biological target: PKBα (Homo sapiens, UniProt P31749)
Sequence (P31749 118-480 limits assumed): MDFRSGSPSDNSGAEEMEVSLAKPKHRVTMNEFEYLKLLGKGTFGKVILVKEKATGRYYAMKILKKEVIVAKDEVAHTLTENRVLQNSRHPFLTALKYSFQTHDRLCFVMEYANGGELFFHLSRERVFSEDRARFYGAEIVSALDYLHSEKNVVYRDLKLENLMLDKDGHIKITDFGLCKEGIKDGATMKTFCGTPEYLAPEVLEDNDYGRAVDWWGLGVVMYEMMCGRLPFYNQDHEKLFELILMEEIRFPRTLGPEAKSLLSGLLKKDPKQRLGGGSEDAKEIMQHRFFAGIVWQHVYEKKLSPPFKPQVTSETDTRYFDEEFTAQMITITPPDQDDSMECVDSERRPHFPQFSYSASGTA
Assay: PKB kinase assay (P33-labeled ATP, synthetic peptide substrate, filter plate)
Settings: PKBα enzyme (full length or kinase domain with pleckstrin domain deleted)
The entries below are paired with their reported IC50.

N[C@H](CNc1nc(-c2ccc3[nH]ncc3c2)ns1)Cc1ccc(C(F)(F)F)cc1 [Example 45]: 1000 to 10000 nM

[in] I have this molecule here, CC(C)Cc1c(-c2ccc3cnccc3c2)noc1NC[C@@H](N)Cc1c[nH]c2ccccc12 [Example 34] , and I need its recorded IC50.
[out] 1000 to 10000 nM

[in] Same question for Cc1n[nH]c2ccc(-c3cnn(CC[C@@H](N)Cc4ccc(Cl)cc4)c3)cc12 [Example 53] please.
[out] < 50 nM

[in] Please give the result for N[C@@H](Cc1ccc(C(F)(F)F)cc1)Cn1cc(-c2ccc3cnccc3c2)cn1 [Example 65] too.
[out] 50 to 1000 nM

[in] Then what about the molecule N[C@H](CCn1cc(-c2ccc3[nH]ncc3c2)nn1)Cc1ccc(C(F)(F)F)cc1 [Example 37] ?
[out] 50 to 1000 nM

[in] Also N[C@H](CCc1cc(-c2ccc3cnccc3c2)no1)Cc1ccc(Cl)cc1 [Example 25] ?
[out] 50 to 1000 nM

[in] Similarly, N[C@H](CCn1cc(-c2ccc3cnccc3c2)cn1)Cc1ccc(Cl)cc1 [Example 56] ?
[out] < 50 nM

[in] Proceed to N[C@H](CNc1nc(-c2ccc3cnccc3c2)ns1)Cc1ccc(C(F)(F)F)cc1 [Example 43]
[out] 50 to 1000 nM

---

Target: PKBα (Homo sapiens)
Assay: PKB kinase assay (P33-labeled ATP, synthetic peptide substrate, filter plate)
Conditions: PKBα enzyme (full length or kinase domain with pleckstrin domain deleted)
Test readout: IC50

[in] What IC50 value was documented for this compound, "N[C@H](CCn1cc(-c2ccc3cnccc3c2)cn1)Cc1ccc(Cl)cc1Cl" ?
[out] 50 to 1000 nM

[in] For "COc1ccc(CNc2ncc(-c3ccc4cnccc4c3)o2)cc1" then?
[out] 1000 to 10000 nM

[in] How about "N[C@H](CCn1cc(-c2ccc3cnccc3c2)cn1)Cc1ccc(Cl)c(Cl)c1" ?
[out] 50 to 1000 nM

[in] Query "N[C@H](CNc1onc(-c2ccc3cnccc3c2)c1Cc1ccccc1)Cc1c[nH]c2ccccc12" next
[out] 50 to 1000 nM

[in] Then "N[C@H](CNc1cc(-c2ccc3cnccc3c2)on1)Cc1ccc(Cl)cc1" ?
[out] 50 to 1000 nM

---

Biological target: PKBα (Homo sapiens)
Test: PKB kinase assay (P33-labeled ATP, synthetic peptide substrate, filter plate)
Format: biochemical
Conditions: PKBα enzyme (full length or kinase domain with pleckstrin domain deleted)
Here, each record is paired with measured IC50 data.

Example entries and their recorded answers appear below.
N[C@H](CCc1nc(-c2ccc3cnccc3c2)no1)Cc1ccc(C(F)(F)F)cc1: 1000 to 10000 nM
N[C@H](CCc1cc(-c2ccc3cnccc3c2)no1)Cc1ccc(C(F)(F)F)cc1: < 50 nM
N[C@H](CCn1cc(-c2ccc3[nH]c(=O)oc3c2)cn1)Cc1ccc(Cl)cc1: < 50 nM
N[C@H](CNc1nnc(-c2ccc3cnccc3c2)o1)Cc1ccc(C(F)(F)F)cc1: 50 to 1000 nM
Cc1c(-c2ccc3cnccc3c2)noc1NC[C@@H](N)Cc1ccccc1: 1000 to 10000 nM

[in] Any idea what its IC50 is? The molecule is "Cc1n[nH]c2ccc(-c3cnc(NC[C@@H](N)Cc4ccc(C(F)(F)F)cc4)o3)cc12"
[out] 50 to 1000 nM

[in] And for "N[C@H](CNc1cnn(-c2ccc3cnccc3c2)c1)Cc1ccc(Cl)cc1" ?
[out] 50 to 1000 nM

[in] Please give the result for "N[C@H](CNc1cc(-c2ccc3cnccc3c2)no1)Cc1cccc(C(F)(F)F)c1" too.
[out] < 50 nM

---

Molecular target: UniProtKB P31749
Experiment: PKB kinase assay (P33-labeled ATP, synthetic peptide substrate, filter plate)
Details: PKBα enzyme (full length or kinase domain with pleckstrin domain deleted)
Test readout: IC50

N[C@H](CNc1cc(-c2ccc3cnccc3c2)on1)Cc1cccc(Cl)c1: 0.05 to 1 µM
N[C@H](CCn1cc(-c2ccc3cnccc3c2)cn1)Cc1ccc(F)cc1: 0.05 to 1 µM
N[C@H](CCn1cc(-c2ccc3cnccc3c2)cn1)Cc1ccccc1: 0.05 to 1 µM

Pending compound:
[in] So what's the measured IC50 for this one? "N[C@H](CNc1onc(-c2ccc3cnccc3c2)c1Cc1ccccc1)Cc1ccccc1"
[out] 1 to 10 µM

---

Molecular target: PKBα (Homo sapiens, UniProt P31749)
Assay: PKB kinase assay (P33-labeled ATP, synthetic peptide substrate, filter plate)
Conditions: PKBα enzyme (full length or kinase domain with pleckstrin domain deleted)
pIC50: −log10 of the molar value.
// values below are reported pIC50

Here is how some compounds turned out for pIC50.
N[C@H](CCc1cc(-c2ccc3cnccc3c2)no1)Cc1cccc(Cl)c1 [Example 26]: 6.00 to 7.30
N[C@H](CNc1cc(-c2ccc3cnccc3c2)no1)Cc1ccc(C(F)(F)F)cc1 [Example 14]: > 7.30
N[C@@H](Cc1ccc(C(F)(F)F)cc1)c1nc(-c2ccc3c(c2)CC(=O)N3)no1 [Example 49]: 5.00 to 6.00
N[C@H](CCn1cc(-c2ccc3[nH]ncc3c2)nn1)Cc1ccccc1 [Example 39]: 6.00 to 7.30
N[C@@H](Cc1ccc(C(F)(F)F)cc1)Cc1nc(-c2ccc3cnccc3c2)no1 [Example 4]: 5.00 to 6.00

[in] Would you kindly share the measured pIC50 for Cc1n[nH]c2ccc(-c3cn(CC[C@@H](N)Cc4ccc(C(F)(F)F)cc4)nn3)cc12 [Example 38] ?
[out] 6.00 to 7.30

[in] Likewise for Cc1n[nH]c2ccc(-c3cnc(NCc4ccccc4)o3)cc12 [Example 10] ?
[out] 5.00 to 6.00

[in] # iterate: N[C@H](CNc1cc(-c2ccc3cnccc3c2)no1)Cc1ccc2ccccc2c1 [Example 19]
[out] 6.00 to 7.30

[in] Also check N[C@H](CCc1cc(-c2ccc3cnccc3c2)no1)Cc1ccc(Cl)cc1Cl [Example 30]
[out] 6.00 to 7.30

---

Target: PKBα (Homo sapiens, UniProt P31749)
Assay: PKB kinase assay (P33-labeled ATP, synthetic peptide substrate, filter plate)
Details: PKBα enzyme (full length or kinase domain with pleckstrin domain deleted)
pIC50: −log10 of the molar value. Where a name gives a salt, the structure may show the parent alone.
Test readout: pIC50

N[C@H](CNc1cnc(-c2ccc3cnccc3c2)s1)Cc1ccc(C(F)(F)F)cc1 [Example 41, trifluoroacetate]: 6.00 to 7.30
N[C@@H](CCc1cc(-c2ccc3cnccc3c2)no1)Cc1ccc(C(F)(F)F)cc1: 6.00 to 7.30
N[C@H](CNc1cc(-c2ccc3cnccc3c2)on1)Cc1ccc(C(F)(F)F)cc1: 6.00 to 7.30
N[C@H](CNc1nsc(-c2ccc3c(c2)CC(=O)N3)n1)Cc1ccc(C(F)(F)F)cc1: 6.00 to 7.30
N[C@H](CCc1nc(-c2ccc3c(c2)CC(=O)N3)no1)Cc1ccc(C(F)(F)F)cc1: 6.00 to 7.30
N[C@H](CCn1cc(-c2ccc3cnccc3c2)cn1)Cc1cccc(Cl)c1: 6.00 to 7.30

[in] Item "N[C@H](CNc1cc(-c2ccc3cnccc3c2)no1)Cc1ccc(Cl)cc1" has what recorded pIC50?
[out] > 7.30

[in] Follow-up item: "Cc1n[nH]c2ccc(-c3nnc(NC[C@@H](N)Cc4cccc(C(F)(F)F)c4)o3)cc12"
[out] 5.00 to 6.00

Numbers sourced from patent US7897619B2.
